Target: UniProt P35398
Assay: HTS LOPAC AlphaScreen screen and compound response curves
Settings: read-out: Final EC50; CRC, 50 µM top, 3-fold dilutions, 10 points, triplicate
This section presents molecules with their documented pEC50 values.
In textbook form, pEC50 equals minus log to base ten of the concentration in mol/L.

Please review the entries below; each comes with its answer.
Form field pEC50, entry CC(=O)[C@H]1CCC2C3CC[C@H]4C[C@H](O)CC[C@]4(C)C3CC[C@@]21C (stereo partly shown) : 6.48

The value of pEC50 measured for the molecule CCCCCCC(C)(C)c1ccc([C@@H]2C[C@H](O)CC[C@H]2CCCO)c(O)c1 turned out to be 6.65

The molecule listed as C[C@]12C=CC(=O)C=C1CC[C@@H]1C2=CC[C@]2(C)[C@@H](C(=O)CN3CCN(c4cc(N5CCCC5)nc(N5CCCC5)n4)CC3)CC[C@@H]12.O=C(O)/C=C\C(=O)O shows pEC50 equal to 6.41

---
Please fill in: pEC50 reported for CC(=O)[C@H]1CC[C@H]2[C@@H]3CCC4=CC(=O)CC[C@]4(C)[C@H]3CC[C@]12C = 6.08

----------
Target: His-RORα-LBD (Homo sapiens, UniProt P35398)
Sequence (P35398 with tags, fused parts or gaps): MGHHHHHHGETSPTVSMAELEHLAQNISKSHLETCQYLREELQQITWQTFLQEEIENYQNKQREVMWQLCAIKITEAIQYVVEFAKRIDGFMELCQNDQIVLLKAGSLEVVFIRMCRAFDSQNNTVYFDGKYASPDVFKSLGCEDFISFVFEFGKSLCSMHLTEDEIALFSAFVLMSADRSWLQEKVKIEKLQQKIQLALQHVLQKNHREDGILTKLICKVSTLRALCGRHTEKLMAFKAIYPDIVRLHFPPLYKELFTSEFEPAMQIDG
Test: HTS LOPAC AlphaScreen screen and compound response curves
Format: biochemical
Conditions: CRC
Some compounds, each annotated with its measured Hill Slope.
Give the value as a plain number.

Measured Hill Slope of CC(=O)[C@H]1CC[C@H]2[C@@H]3CCC4=CC(=O)CC[C@]4(C)[C@H]3CC[C@]12C [P 0130] : 1.07

Kindly note the recorded Hill Slope for CC(=O)[C@H]1CCC2C3CC[C@H]4C[C@H](O)CC[C@]4(C)C3CC[C@@]21C (stereo partly shown) [P 8887] , which is 0.28

Hill Slope reading for C[C@]12C=CC(=O)C=C1CC[C@@H]1C2=CC[C@]2(C)[C@@H](C(=O)CN3CCN(c4cc(N5CCCC5)nc(N5CCCC5)n4)CC3)CC[C@@H]12.O=C(O)/C=C\C(=O)O [U 5882] : 1.79

Now let's try a different one.
Entry CCCCCCC(C)(C)c1ccc([C@@H]2C[C@H](O)CC[C@H]2CCCO)c(O)c1 [C 1112] — recorded Hill Slope = 1.73
